Target or system SFRP-1 (Homo sapiens, UniProt Q8N474): recorded pIC50 listed per item.
Conceptually, pIC50 converts a concentration in mol/L into minus its log10.

Cc1ccc(S(=O)(=O)c2ccccc2)cc1S(=O)(=O)NC1CCN(C(=O)c2ccc(Cl)cc2)CC1 [Example 466]
5.77
CC(C)c1ccc(S(=O)(=O)c2ccc(F)cc2)cc1S(=O)(=O)NC1CCN(C(=S)Nc2ccccc2F)CC1 [Example 691]
6.00
CCCc1ccc(S(=O)(=O)c2ccccc2)cc1S(=O)(=O)NCCc1cccnc1 [Example 876]
6.10
O=S(=O)(NC1c2ccccc2CC1O)c1cc(S(=O)(=O)c2ccccc2)ccc1C(F)(F)F (stereo not shown) [Example 823]
6.10
O=S(=O)(NCc1ccc(Cl)nc1)c1cc(S(=O)(=O)c2ccccc2)ccc1C(F)(F)F [Example 1030]
6.30

Query pIC50 on SFRP-1 (Homo sapiens, UniProt Q8N474) for CN(CCNS(=O)(=O)c1cc(S(=O)(=O)c2ccccc2)ccc1C(F)(F)F)S(=O)(=O)c1cccc(C(=O)O)c1 [Example 883] 6.40

Requested read-out pIC50, target or system SFRP-1 (Homo sapiens, UniProt Q8N474), entry CN(C)c1ccc(S(=O)(=O)c2ccc(C(F)(F)F)c(S(=O)(=O)NC3CCNCC3)c2)cc1 [Example 843] 6.59

###

- target.desc: SFRP-1 (Homo sapiens)
- protocol.description: Cell-based assay for in vitro measurement of SFRP-1/SARP2 antagonist activity (U2OS cells co-transfected with 16x TCF-tk-Luciferase reporter, Wnt and hSFRP-1)
- measurement.setup: U2OS, read-out: Fold Induction without SFRP-1, Conc 15 μM; without SFRP-1, single dose
Collected fold induction at 15 µM values appear next to each entry.
Lab note: jot the number down without any unit.

Consider the reported fold induction at 15 µM for these compounds:
CC(=O)c1cccc(S(=O)(=O)c2ccc(C)c(S(=O)(=O)NCCc3ccccn3)c2)c1
1.3
COc1ccc(C(=O)N2CCC(NS(=O)(=O)c3cc(S(=O)(=O)c4ccccc4)ccc3C)CC2)cc1
1
CC(C)c1ccc(S(=O)(=O)c2cc(F)cc(F)c2)cc1S(=O)(=O)NCCc1ccccn1
0.9
COc1ccc(S(=O)(=O)c2ccccc2)cc1S(=O)(=O)NCCN1CCOCC1
0.9
COc1cccc(S(=O)(=O)c2ccc(C)c(S(=O)(=O)NCCc3ccccn3)c2)c1OC
1.2
CNc1ccc(S(=O)(=O)c2ccc(C(C)C)c(S(=O)(=O)NCCC3CCOCC3)c2)cc1
0.9
Cc1ccc(S(=O)(=O)NCCCn2ccnc2)cc1S(=O)(=O)c1ccccc1
1.1

Would you kindly look at the next entry?
fold induction at 15 µM lookup needed for Cc1ccc(S(=O)(=O)c2ccc(NCc3ccc(C(F)(F)F)cc3)cc2)cc1S(=O)(=O)NCCCn1ccnc1 , thanks. 0.9

###

- target.desc: SFRP-1 (Homo sapiens)
- protocol.description: Cell-based assay for in vitro measurement of SFRP-1/SARP2 antagonist activity (U2OS cells co-transfected with 16x TCF-tk-Luciferase reporter, Wnt and hSFRP-1)
- measurement.setup: U2OS, read-out: Fold Induction with SFRP-1, U2OS cells, single dose 10 μM, luciferase reporter, fold induction over SFRP-1 control
Please use T for fold induction at 10 µM under 3 and F for everything else, ties included.

A selection of reference data follows.
O=C(c1ccccc1)c1ccc(C(=O)N2CCC(NS(=O)(=O)c3cc(S(=O)(=O)c4ccccc4)ccc3C(F)(F)F)CC2)cc1
F
Cc1ccc(S(=O)(=O)c2ccc(F)cc2)cc1S(=O)(=O)NCC(O)c1cccnc1 (stereo not shown)
F
Nc1ccc(CNS(=O)(=O)c2cc(S(=O)(=O)c3ccccc3)ccc2C(F)(F)F)cc1
F
CC(C)c1ccc(S(=O)(=O)c2ccc(F)cc2)cc1S(=O)(=O)NCCC#N
F
O=S(=O)(N[C@H](CO)Cc1c[nH]c2ccccc12)c1cc(S(=O)(=O)c2ccccc2)ccc1C(F)(F)F
T
O=C(O)c1cccc(S(=O)(=O)N2CCCC2CCNS(=O)(=O)c2cc(S(=O)(=O)c3ccccc3)ccc2C(F)(F)F)c1 (stereo not shown)
T

Read the next record carefully.
I wonder whether O=S(=O)(N[C@H](CO)Cc1ccccc1)c1cc(S(=O)(=O)c2ccccc2)ccc1C(F)(F)F has fold induction at 10 µM below 3. Can you tell? T

###

- target.desc: SFRP-1 (Homo sapiens)
- protocol.description: Cell-based assay for in vitro measurement of SFRP-1/SARP2 antagonist activity (U2OS cells co-transfected with 16x TCF-tk-Luciferase reporter, Wnt and hSFRP-1)
measured.attribute: EC50

Example compounds with recorded EC50:
COc1cc(C(=O)N2CCC(NS(=O)(=O)c3cc(S(=O)(=O)c4ccccc4)ccc3C(F)(F)F)CC2)cc(Cl)n1 [Example 715]
1290 nM
Cc1cc(C(=O)N2CCC(NS(=O)(=O)c3cc(S(=O)(=O)c4ccccc4)ccc3C(F)(F)F)CC2)cc(Cl)n1 [Example 856]
360 nM
CN(CCNS(=O)(=O)c1cc(S(=O)(=O)c2ccccc2)ccc1C(F)(F)F)C(=O)OC(C)(C)C [Example 793]
1540 nM

Lookup: EC50 / SFRP-1 (Homo sapiens) / O=S(=O)(NC(CO)CO)c1cc(S(=O)(=O)c2ccccc2)ccc1Cl [Example 675] 41500 nM

###

Target chain: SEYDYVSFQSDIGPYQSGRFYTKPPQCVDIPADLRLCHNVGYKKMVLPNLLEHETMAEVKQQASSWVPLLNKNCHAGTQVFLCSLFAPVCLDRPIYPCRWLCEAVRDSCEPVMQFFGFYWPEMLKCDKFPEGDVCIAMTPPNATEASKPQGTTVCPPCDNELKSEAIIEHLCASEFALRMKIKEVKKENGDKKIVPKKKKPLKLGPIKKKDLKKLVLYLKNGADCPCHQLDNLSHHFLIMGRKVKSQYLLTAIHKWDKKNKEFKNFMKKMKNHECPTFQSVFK
Property: pIC50; scope: individual compounds
Conceptually, pIC50 converts a concentration in mol/L into minus its log10.

Sample records with pIC50:
O=C(c1ccc(Cl)c(Cl)c1)N1CCC(NS(=O)(=O)c2cc(S(=O)(=O)c3ccccc3)ccc2C(F)(F)F)CC1
6.30
Cc1cc(C)c(S(=O)(=O)c2ccccc2)cc1S(=O)(=O)NCC(O)c1ccccn1 (stereo not drawn)
4.82
O=S(=O)(NCCC1CCCN1)c1cc(S(=O)(=O)c2ccccc2)ccc1C(F)(F)F (stereo not drawn)
5.52
N=C(N)Nc1ccc(CCNS(=O)(=O)c2cc(S(=O)(=O)c3ccccc3)ccc2C(F)(F)F)cc1
6.52
CC(C)c1ccc(S(=O)(=O)c2ccccc2)cc1S(=O)(=O)NC1CCN(C(=O)OC(C)(C)C)CC1
5.68

I am curious: what pIC50 value has been reported for CN(CCCNS(=O)(=O)c1cc(S(=O)(=O)c2ccccc2)ccc1C(F)(F)F)C(=O)OC(C)(C)C ? 5.62

Item CN(CCCNS(=O)(=O)c1cc(S(=O)(=O)c2ccccc2)ccc1C(F)(F)F)C(=O)NC1CCNCC1 has what recorded pIC50? 6.22

Looking for the measured pIC50 of Cc1ccc(S(=O)(=O)c2ccccc2)cc1S(=O)(=O)NC1CCN(C(=O)c2ccc(C#N)cc2)CC1 , can you help? 5.85

Name the recorded pIC50 for CC1(C)CC(NS(=O)(=O)c2cc(S(=O)(=O)c3ccccc3)ccc2C(F)(F)F)CC(C)(C)N1 . 5.22

May I ask what pIC50 has been recorded for N#Cc1ccc(CCNS(=O)(=O)c2cc(S(=O)(=O)c3ccccc3)ccc2C(F)(F)F)cc1 ? 6.30

Which measured pIC50 value corresponds to O=C(O)C1CCCC(NS(=O)(=O)c2cc(S(=O)(=O)c3ccccc3)ccc2C(F)(F)F)C1 (stereo not drawn) ? 5.60

###

# fold induction at 15 µM per entry
- target.desc: SFRP-1 (Homo sapiens)
- Sequence (Q8N474 32-314): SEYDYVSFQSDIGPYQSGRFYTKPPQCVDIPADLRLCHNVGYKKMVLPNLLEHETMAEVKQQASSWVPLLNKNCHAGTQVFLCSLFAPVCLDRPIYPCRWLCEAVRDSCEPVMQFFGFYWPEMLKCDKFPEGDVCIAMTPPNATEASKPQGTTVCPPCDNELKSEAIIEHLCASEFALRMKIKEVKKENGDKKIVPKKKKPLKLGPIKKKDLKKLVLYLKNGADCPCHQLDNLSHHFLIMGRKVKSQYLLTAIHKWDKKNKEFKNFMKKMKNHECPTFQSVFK
- protocol.description: Cell-based assay for in vitro measurement of SFRP-1/SARP2 antagonist activity (U2OS cells co-transfected with 16x TCF-tk-Luciferase reporter, Wnt and hSFRP-1);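 also: U2OS cells co-transfected with a TCF-tk luciferase reporter, a Wnt vector, hSFRP-1 or empty vector and CMV-βgal, luciferase luminescence read in cell lysates alongside βgal activity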
- measurement.setup: U2OS, read-out: Fold Induction without SFRP-1, Conc 15 μM; without SFRP-1, single dose
Enter a number only.

Known results for compounds:
CC(=O)c1ccc(S(=O)(=O)c2ccc(C)c(S(=O)(=O)NC3CCOCC3)c2)cc1 [Example 380]
0.6
Cc1ccc(S(=O)(=O)c2cccc(Cl)c2Cl)cc1S(=O)(=O)NCCCn1ccnc1 [Example 360]
0.9
Cc1ccc(S(=O)(=O)c2ccccc2)cc1S(=O)(=O)NCCc1ccncc1 [Example 208]
0.9
Cc1ccc(S(=O)(=O)c2ccc(NCC3CC3)cc2)cc1S(=O)(=O)NCCCn1ccnc1 [Example 368]
1
Cc1ccc(S(=O)(=O)c2ccc(F)cc2)cc1S(=O)(=O)NCCC1CCCN1C (stereo not shown) [Example 164]
1.1
COc1ccc(S(=O)(=O)c2ccccc2)cc1S(=O)(=O)NCCc1c[nH]cn1 [Example 236]
1
Cc1cc(C)c(S(=O)(=O)c2ccc(F)cc2)cc1S(=O)(=O)NCCCn1ccnc1 [Example 330]
1.1
CCc1ccc(S(=O)(=O)c2ccccc2)cc1S(=O)(=O)N1CCN(CCN(CC)CC)CC1 [Example 286]
1.3

We next turn to a different compound, shown below.
Returns the measured fold induction at 15 µM for the input compound. Input: Cc1ccc(S(=O)(=O)c2ccc(F)cc2)cc1S(=O)(=O)NC[C@@H](C)c1ccccc1 [Example 261] 0.9
